Test system: HCT-116
test: Growth inhibition of human HCT116 cells after 2 days by sulforhodamine B assay
Format: functional
measurement-conditions: HCT-116, 48 h
# GI50 listing for each entry below
experimental-endpoint: GI50

INSERT INTO results (molecule, assayed_system, assay_result) VALUES
  ('CC1=C(C(=O)Nc2cccc([N+](=O)[O-])c2)C(c2ccc(O)cc2O)NC(Nc2ccc(S(=O)(=O)Nc3cc(C)on3)cc2)=N1 (configuration not stated)', 'HCT-116', '16.6 µM'),
  ('CC1=NN(C2=NC(C)=C(C(=O)Nc3cccc([N+](=O)[O-])c3)C(c3ccc(O)cc3O)N2)C(=O)/C1=C/c1cccs1 (configuration not stated)', 'HCT-116', '26.5 µM'),
  ('CC1=C(C(=O)Nc2cccc([N+](=O)[O-])c2)C(c2ccc(O)cc2O)NC(NN2C(=O)/C(=C\c3ccccc3)SC2=S)=N1 (configuration not stated)', 'HCT-116', '16.6 µM'),
  ('CC1=C(C(=O)Nc2ccc(C)cc2)C(c2ccc(O)cc2O)NC(Nc2ccc([N+](=O)[O-])cc2Cl)=N1 (configuration not stated)', 'HCT-116', '28.2 µM'),
  ('CC1=C(C(=O)Nc2cccc([N+](=O)[O-])c2)C(c2ccc(O)cc2O)NC(Nc2ccc([N+](=O)[O-])cc2Cl)=N1 (configuration not stated)', 'HCT-116', '10.9 µM'),
  ('CC1=NN(C2=NC(C)=C(C(=O)Nc3cccc([N+](=O)[O-])c3)C(c3ccc(O)cc3O)N2)C(=O)/C1=C/c1ccco1 (configuration not stated)', 'HCT-116', '> 100 µM'),
  ('Cc1nc(S(=O)(=O)Cc2ccccc2)nc(-c2ccc(O)cc2O)c1C(=O)Nc1cccc([N+](=O)[O-])c1', 'HCT-116', '10.9 µM');

---

# IC50 listing for each entry below
assayed-system: Cyclin-dependent kinase 2/cyclin A (Homo sapiens, UniProt P24941)
test: Inhibition of human recombinant CDK2/cyclin A expressed in baculovirus-infected insect Sf21 cells after 10 mins
experimental-endpoint: IC50 (µM)

INSERT INTO results (compound, unit_of_measurement, assay_result) VALUES
  ('CC1=C(C(=O)Nc2cccc([N+](=O)[O-])c2)C(c2ccc(O)cc2O)NC(NCc2ccccc2)=N1 (centres undefined)', 'µM', 46.8),
  ('CC1=C(C(=O)Nc2ccc(C)cc2)C(c2ccc(O)cc2O)NC(Nc2ccc([N+](=O)[O-])cc2Cl)=N1 (centres undefined)', 'µM', 44.9),
  ('CC1=NN(C2=NC(C)=C(C(=O)Nc3cccc([N+](=O)[O-])c3)C(c3ccc(O)cc3O)N2)C(=O)/C1=C/c1cccs1 (centres undefined)', 'µM', 3.1),
  ('CC1=C(C(=O)Nc2cccc([N+](=O)[O-])c2)C(c2ccc(O)cc2O)NC(Nc2ccc(S(=O)(=O)Nc3ncccn3)cc2)=N1 (centres undefined)', 'µM', 57.5);

---

Test system: A-431
test: Growth inhibition of human A431 cells after 2 days by sulforhodamine B assay
Type: functional
measurement-conditions: A-431, 48 h
experimental-endpoint: GI50 (µM)

INSERT INTO measurements (molecule, unit_of_measurement, qualifying_sign, assay_result) VALUES
  ('CC1=C(C(=O)Nc2cccc([N+](=O)[O-])c2)C(c2ccc(O)cc2O)NC(Nc2ccc(S(=O)(=O)Nc3nc(C)cc(C)n3)cc2)=N1 (centres undefined)', 'µM', '=', 3.94),
  ('Cc1nc(S(=O)(=O)Cc2ccccc2)nc(-c2ccc(O)cc2O)c1C(=O)Nc1cccc([N+](=O)[O-])c1', 'µM', '=', 28.9),
  ('CC1=C(C(=O)Nc2ccc(C)cc2)C(c2ccc(O)cc2O)NC(SCc2ccccc2)=N1 (centres undefined)', 'µM', '=', 20.8),
  ('CC1=C(C(=O)Nc2cccc([N+](=O)[O-])c2)C(c2ccc(O)cc2O)NC(SCc2ccccc2)=N1 (centres undefined)', 'µM', '>', 100);
